Biological target: T1, biotinylated synthetic human Amyloid beta 1-42 peptide (human, UniProt P05067 672-713, biotinylated (N-terminal biotin in Example 4))
T1 construct: domain: Amyloid beta 1-42 peptide; Numbers 1-42 count on the Amyloid beta peptide, not on APP; also called biotinylated human Amyloid beta 1-42; N-terminal biotin Abeta 1-42
T1 sequence (P05067 672-713 limits assumed): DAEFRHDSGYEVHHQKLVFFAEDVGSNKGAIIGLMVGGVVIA
Test: SPR (ProteOn); biotinylated peptide on streptavidin chip, scFv in solution
The entries below come with measured kon values attached.
Numbers only here, please. The scale is M⁻¹ s⁻¹.

[
  {
    "binder": "Abet0144-GL scFv (scFv, V domains shown, not shown: small tags and cut ends, Purified scFv expressed in E. coli; also called parent clone) VH: EVQLLESGGGLVQPGGSLRLSCAASGFTFSVYTMWWVRQAPGKGLEWVSVIGSSGGTTVYADSVKGRFTISRDNSKNTLYLQMNSLRAEDTAVYYCAREWMDHSRPYYYYGMDVWGQGTLVTVSS VL: SYELTQPPSVSVSPGQTASITCSGHNLEDKFASWYQQKPGQSPVLVIYRDDKRPSGIPERFSASNSGHTATLTISGTQAMDEADYYCQAQDSTTRVFGGGTKLTVL",
    "kon, M⁻¹ s⁻¹": 116000
  }
]

Req: Form field: reported kon of Abet0343 scFv (scFv, V domains shown, not shown: small tags and cut ends, Purified scFv expressed in E. coli) VH: EVQLLESGGGLVQPGGSLRLSCAASGFNFNHQVMWWVRQAPGKGLEWVSVIGKTNENIAYADSVKGRFTISRDNSKNTLYLQMNSLRAEDTAVYYCAREWMDHSRPYYYYGMDVWGQGTLVTVSS VL: QSVLTQPPSVSVSPGQTASITCSGHNLEDKFASWYQQKSGQSPVLVIYRDDKRPSGIPERFSASNSGHTATLTISGTQATDEADYYCSSQDTVTRVFGGGTKLTVL
Resp: 120000

Req: // query kon value for entry Abet0368 scFv (scFv, V domains shown, not shown: small tags and cut ends, Purified scFv expressed in E. coli) VH: EVQLLESGGGLVQPGGSLRLSCAASGFDFGPSPMWWVRQAPGKGLEWVSVIGKDTQNSTYADSVKGRFTISRDNSKDTLYLQMNSLKAEDTAVYYCAREWMDHSRPYYYYGMDVWGQGTLVTVSS VL: SYELTQPPSVSVSPGQTASITCSGHNLEDKFTSWYQQKSGQSPVLVIYRDDKRPSGIPERFSASNSGHTATLTISGAQATDEADYYCSSQDTVTRVFGGGTKLTVL
Resp: 187000
